- Tested on: T1, human IL-33 (R&D Systems, #3625-IL-010/CF) (human, UniProt O95760 112-270)
- T1 construct: Commercial recombinant protein; also called hIL-33; interleukin-33
- T1 sequence (looked up): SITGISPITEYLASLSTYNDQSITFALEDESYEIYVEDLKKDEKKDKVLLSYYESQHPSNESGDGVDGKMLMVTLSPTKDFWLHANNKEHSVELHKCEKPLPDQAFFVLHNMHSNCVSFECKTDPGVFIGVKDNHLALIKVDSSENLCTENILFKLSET
- Protocol text: SPR 25C, pH6.0 chase, mAb captured
Measurement label: t½ Ratio (pH 7.4/pH 6.0)
Just the number, please, no unit after it.

Solved cases below.
[
  {
    "Binder": "H4H9664P (antibody, human IgG4, V domains shown, Human IgG4 Fc (H4H)) VH: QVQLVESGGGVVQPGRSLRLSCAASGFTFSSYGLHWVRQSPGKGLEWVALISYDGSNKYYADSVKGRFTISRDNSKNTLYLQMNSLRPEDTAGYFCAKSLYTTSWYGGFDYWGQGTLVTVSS VL: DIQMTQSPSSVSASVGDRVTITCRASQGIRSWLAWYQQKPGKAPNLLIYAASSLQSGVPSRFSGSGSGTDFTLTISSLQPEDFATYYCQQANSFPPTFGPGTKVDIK",
    "t½ Ratio (pH 7.4/pH 6.0)": 3.2
  },
  {
    "Binder": "H4H9666P (antibody, human IgG4, V domains shown, Human IgG4 Fc (H4H)) VH: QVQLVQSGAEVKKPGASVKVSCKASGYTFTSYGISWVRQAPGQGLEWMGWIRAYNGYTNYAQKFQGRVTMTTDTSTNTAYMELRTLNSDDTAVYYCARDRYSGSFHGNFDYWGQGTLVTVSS VL: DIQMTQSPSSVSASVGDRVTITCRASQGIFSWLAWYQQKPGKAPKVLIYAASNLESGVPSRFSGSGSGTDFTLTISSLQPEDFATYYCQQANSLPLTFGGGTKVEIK",
    "t½ Ratio (pH 7.4/pH 6.0)": 4.8
  }
]

Notebook: H4H9665P (antibody, human IgG4, V domains shown, Human IgG4 Fc (H4H)) VH: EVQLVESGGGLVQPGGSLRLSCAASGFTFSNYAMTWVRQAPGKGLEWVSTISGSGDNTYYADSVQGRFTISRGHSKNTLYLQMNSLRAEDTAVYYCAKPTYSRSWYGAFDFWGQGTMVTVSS VL: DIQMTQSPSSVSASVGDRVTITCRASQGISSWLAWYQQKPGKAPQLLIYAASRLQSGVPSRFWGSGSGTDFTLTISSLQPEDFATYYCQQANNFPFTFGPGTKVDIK , t½ Ratio (pH 7.4/pH 6.0) read as 4.5

Attribution: patent US20160362487A1
